- Tested on: A673/TR/shEF
- experiment_notes: cell viability (LOESS-normalised, relative to median of negative controls) (log2 ratio); higher = more viable cells (less compound effect), active = hit call of the paper (over 3 MAD below the median)
- assay_setup: 2.5 µM; library screen: screen1; EWS-FLI1 expression: low (doxycycline-induced shRNA knockdown); treatment time: 72 h
The campaign covered roughly 3,200 compounds. About 300 (9.4%) showed activity. Shown is part of a subset that was picked to be rich in actives.
One threshold, 0.08, splits the recorded cell viability (log2) values: lower ones are label 1, equal or higher ones are label 0.

A selection of reference data follows.
Report whether reported cell viability (log2) is lower than 0.08 (strictly) for "COc1ccccc1-c1cc(=O)c2cccc(OC)c2o1"
label 1

hey, is cell viability (log2) for "CS(=O)(=O)CCCCN=C=S" lower than 0.08 or not?
label 0

Hello, is cell viability (log2) of the following compound strictly smaller than 0.08? "O=C(O[C@@H]1Cc2c(O)cc(O)cc2O[C@@H]1c1cc2cc([C@H]3Oc4cc(O)cc(O)c4C[C@H]3O)cc(=O)c(O)c2c(O)c1O)c1cc(O)c(O)c(O)c1"
label 1

Further cases:
Given "CC1=C(/C=C/C(C)=C/C=C/C(C)=C/C=C/C=C(C)/C=C/C=C(C)/C=C/[C@@]23O[C@]2(C)C[C@@H](O)CC3(C)C)C(C)(C)C[C@H](O)C1" , is recorded cell viability (log2) strictly lower than 0.08?
label 0

###

- Tested on: A673/TR/shEF
- experiment_notes: cell viability (LOESS-normalised, relative to median of negative controls) (log2 ratio); higher = more viable cells (less compound effect), active = hit call of the paper (over 3 MAD below the median)
- assay_setup: 8.3 µM; library screen: screen3; EWS-FLI1 expression: low (doxycycline-induced shRNA knockdown); treatment time: 72 h
Screen size: about 3,200 compounds; about 300 (9.4%) showed activity. Many of the other results were omitted from the sample, so actives are more common in it than they were.
quantity: cell viability (log2)
The response must contain the number and no unit.

Here are 5 molecules together with their reported answers.
cell viability (log2) for "CN(Cc1cnc2nc(N)nc(N)c2n1)c1ccc(C(=O)N[C@@H](CCC(=O)O)C(=O)O)cc1" is 0.0521

Value of cell viability (log2) reported for the molecule "Nc1ncnc2c1ncn2[C@@H]1O[C@H](CO)[C@@H](O)[C@H]1O" is 0.0635

Entry "Cc1cn([C@@H]2C[C@@H](O)[C@H](CO)O2)c(=O)[nH]c1=O" ; cell viability (log2) = 0.101

Reported cell viability (log2) for "CCC(C)(C)C(=O)O[C@H]1C[C@@H](C)C=C2C=C[C@H](C)[C@H](CC[C@@H]3C[C@@H](O)CC(=O)O3)[C@H]21" was -0.13

The molecule identified as "O=c1[nH]c(=O)n([C@H]2C[C@H](O)[C@@H](CO)O2)cc1C(F)(F)F" registered its cell viability (log2) at 0.048

New cases:
"Nc1nc(F)nc2c1ncn2[C@@H]1O[C@H](CO)[C@@H](O)[C@@H]1O" has a reported cell viability (log2) of 0.0649

Noted for "CC1(C)S[C@@H]2[C@H](NC(=O)[C@H](N)c3ccc(O)cc3)C(=O)N2[C@H]1C(=O)O" : its cell viability (log2) reads 0.106

// field: cell viability (log2); key: "O=c1[nH]c(=O)n([C@H]2C[C@H](O)[C@@H](CO)O2)cc1F" ; value = 0.0595

// cell viability (log2) lookup, molecule = "C=C1c2cccc(O)c2C(O)=C2C(=O)[C@]3(O)C(O)=C(C(N)=O)C(=O)[C@@H](N(C)C)[C@@H]3[C@@H](O)[C@H]12" , result: 0.0589

###

Overview of recorded cell viability (log2) for various molecules
- Test system: A673/TR/shEF
- experiment_notes: cell viability (LOESS-normalised, relative to median of negative controls) (log2 ratio); higher = more viable cells (less compound effect), active = hit call of the paper (over 3 MAD below the median)
- assay_setup: 2.5 µM; library screen: screen1; EWS-FLI1 expression: low (doxycycline-induced shRNA knockdown); treatment time: 72 h
Among all 3,200 compounds or so, about 300 (9.4%) showed activity. The entries come from a sample that favours actives as a whole.
Give the figure by itself; no unit, no explanation.

Summary: COc1cc(C2NC(=S)NC(C)=C2C(=O)Nc2cccc(Cl)c2)cc(OC)c1OC (stereo not given) , A673/TR/shEF, cell viability (log2) = 0.0553

cell viability (log2) for A673/TR/shEF with input "NC(N)=NCCC[C@H](N[C@H](CCC(=O)O)C(=O)O)C(=O)O" equals 0.0291

Fill in: A673/TR/shEF cell viability (log2) for "COc1cc2ncnc(Nc3cccc(Cl)c3)c2cc1OC" = 0.122

Short answer on A673/TR/shEF for "O=C1c2c(O)ccc(O)c2C(=O)c2c(NCCNCCO)ccc(NCCNCCO)c21" , cell viability (log2): -3.67

Lab entry: A673/TR/shEF assay, molecule CC(CN1c2ccccc2Sc2cccnc21)N(C)C (stereo not given) , cell viability (log2) = 0.034

cell viability (log2) of "Fc1cccc(CN2CCN(Cc3ccco3)CC2)c1" , assay on A673/TR/shEF, is 0.135

Field cell viability (log2) (system: A673/TR/shEF) for entry "O=C1C=CC(=C(c2ccc(O)cc2)c2ccc(O)cc2)C=C1" = 0.0767

The observed cell viability (log2) for "CC[C@H]1OC(=O)[C@H](C)[C@@H](O[C@H]2C[C@@](C)(OC)[C@@H](O)[C@H](C)O2)[C@H](C)[C@@H](O[C@@H]2O[C@H](C)C[C@H](N(C)C)[C@H]2O)[C@](C)(O)C[C@@H](C)/C(=N/OCOCCOC)[C@H](C)[C@@H](O)[C@]1(C)O" when tested with A673/TR/shEF stands at 0.103

// assay A673/TR/shEF, entry "C[n+]1c2cc(N)ccc2cc2ccc(N)cc21" , cell viability (log2) value = 0.101

Reported A673/TR/shEF cell viability (log2) for item "COCc1cc(O)c(O)c(O)c1-c1c(COC)cc(O)c(O)c1O" was 0.159

// returns cell viability (log2) for CC1(O)/C=C\C=C(\CO)C2CC(C)(C)C2(O)CC1 (stereo not given) with A673/TR/shEF; value = 0.00974

Record for COc1ccc2c(c1)CCC1C2CCC2(C)C1C[C@@H](O)[C@@H]2O (stereo not given in full) under target or system A673/TR/shEF: cell viability (log2) reported as -0.0118

Log: A673/TR/shEF, molecule "COc1c(C=O)c(O)cc2c1C(=O)c1ccccc1C2=O" , cell viability (log2) = -0.209

###

- Test system: A673/TR/shEF
- experiment_notes: cell viability (LOESS-normalised, relative to median of negative controls) (log2 ratio); higher = more viable cells (less compound effect), active = hit call of the paper (over 3 MAD below the median)
- assay_setup: 2.5 µM; library screen: screen1; EWS-FLI1 expression: low (doxycycline-induced shRNA knockdown); treatment time: 72 h
Out of some 3,200 compounds screened, about 300 (9.4%) showed activity. Only a selection was taken, and actives are over-represented in it overall.
Your response should consist of one outcome taken from active, inactive

For this compound, state the assay outcome: "C[C@H]1O[C@@H](O[C@H]2[C@@H](O)C[C@H](O[C@H]3[C@@H](O)C[C@H](O[C@H]4CC[C@@]5(C)[C@H](CC[C@@H]6[C@@H]5C[C@@H](O)[C@]5(C)[C@@H](C7=CC(=O)OC7)CC[C@]65O)C4)O[C@@H]3C)O[C@@H]2C)C[C@H](O)[C@@H]1O"
active

Hello, I am checking results. What call was entered for CC1=C(O)C(=O)C(C(C)C)CC1 (stereo unspecified) ?
inactive

Outcome logged for "C=CC1=C(C)/C(=C/c2[nH]c(Cc3[nH]c(/C=C4\NC(=O)C(C)=C4C=C)c(C)c3CCC(=O)O)c(CCC(=O)O)c2C)NC1=O" in this assay:
inactive

What did the test return for "C[C@H]1O[C@@H](O[C@H]2[C@@H](O)C[C@H](O[C@H]3[C@@H](O)C[C@H](O[C@H]4CC[C@@]5(C)[C@H](CC[C@@H]6[C@@H]5CC[C@]5(C)[C@@H](C7=CC(=O)OC7)CC[C@]65O)C4)O[C@@H]3C)O[C@@H]2C)C[C@H](O)[C@@H]1O" ?
active

Test call, this compound: COc1ccccc1NC(=O)C1=C(C)NC(=O)NC1c1ccc(Cl)cc1 (stereo unspecified)
inactive

Okay, next one:
Write down the call the test reported for this compound. Item: CC(=O)OC1CCC2(C)C3=C(CC[C@H]2C1(C)C)[C@@]1(C)CC[C@@H]([C@@H](C)CCC=C(C)C)[C@]1(C)CC3 (stereo partly specified)
inactive
